# TEST_DETAILS: Part 2 MAD: plasma pharmacokinetics, once daily for 10 days
# Format: in vivo, human
# CONDITION_CONTEXT: human, plasma, oral, 3 mg, Day 10, geometric mean
PARAMETER_MEASURED: half-life (h)
Please state the figure in h; there is no need to write the unit.

**Q:** Item CS(=O)(=O)N[C@H]1CCCN2C(=O)COc3ccccc3C3CCC(CC3)OCC12 (stereo partly shown) [Compound A] has what recorded half-life?
**A:** 9.63

* * *

# TEST_DETAILS: Part 6 IH: plasma pharmacokinetics, single doses
# Assay type: in vivo, human
# CONDITION_CONTEXT: human, plasma, oral, 25 mg, IH, plasma, median, N = 8; read-out: Tmax
# Procedure: Treatments were administered under fasted state. Dose levels were as follows: Subjects were randomized to 1 of 4 sequences. Blood samples (up to 5 mL per sample) were collected for PK analysis of Compound A and its metabolite(s). The actual time of sample collection was recorded. The PK samples of the subjects randomized to placebo treatment were not analyzed. Any remaining plasma PK samples were used to explore the presence of any additional metabolites and/or biomarkers. […]
PARAMETER_MEASURED: Tmax
Include the unit after the number when you answer.

**Q:** Item CS(=O)(=O)N[C@H]1CCCN2C(=O)COc3ccccc3C3CCC(CC3)OCC12 (stereo partly shown) has what recorded Tmax?
**A:** 1.5 h

* * *

# TEST_DETAILS: Part 2 MAD: plasma pharmacokinetics, once daily for 10 days
# Type: in vivo, human
# CONDITION_CONTEXT: human, plasma, oral, 15 mg, Day 10, geometric mean; read-out: C8 (concentration at 8-hour postdose)
PARAMETER_MEASURED: concentration at 8 h (ng/mL)
Please state the figure in ng/mL; there is no need to write the unit.

**Q:** Item CS(=O)(=O)N[C@H]1CCCN2C(=O)COc3ccccc3C3CCC(CC3)OCC12 (stereo partly shown) [Compound A] has what recorded concentration at 8 h?
**A:** 4.62

* * *

# TEST_DETAILS: Part 2 MAD: plasma pharmacokinetics, once daily for 10 days
# Format: in vivo, human
# CONDITION_CONTEXT: human, plasma, oral, 25 mg, 3, 8, 15 and 25 mg, both Day 1 and Day 10 (range 1.0 to 6.0); read-out: median Tmax
PARAMETER_MEASURED: Tmax (h)
Please state the figure in h; there is no need to write the unit.

**Q:** Item CS(=O)(=O)N[C@H]1CCCN2C(=O)COc3ccccc3C3CCC(CC3)OCC12 (stereo partly shown) [Compound A] has what recorded Tmax?
**A:** 1.75

* * *

# TEST_DETAILS: Part 1 SAD: plasma pharmacokinetics after single oral dose
# Type: in vivo, human
# CONDITION_CONTEXT: human, plasma, oral; 3 mg single dose, geometric mean, N = 3; read-out: Vz/F
PARAMETER_MEASURED: Vd/F (L)
Please state the figure in L; there is no need to write the unit.

**Q:** Item CS(=O)(=O)N[C@H]1CCCN2C(=O)COc3ccccc3C3CCC(CC3)OCC12 (stereo partly shown) has what recorded Vd/F?
**A:** 318

* * *

# TEST_DETAILS: Part 2 MAD: plasma pharmacokinetics, once daily for 10 days
# Assay type: in vivo, human
# CONDITION_CONTEXT: human, plasma, oral, 25 mg, Day 10, median; read-out: Tmax
PARAMETER_MEASURED: Tmax (h)
Please state the figure in h; there is no need to write the unit.

**Q:** Item CS(=O)(=O)N[C@H]1CCCN2C(=O)COc3ccccc3C3CCC(CC3)OCC12 (stereo partly shown) [Compound A] has what recorded Tmax?
**A:** 1.5
